A collection of compounds and their measured growth
# System: NCI-H322M lung
# ASSAY_INFO: NCI-60 one-dose screen, 48 h (100 = growth as untreated, 0 = no growth, -100 = all killed)
# PROTOCOL_CONDITIONS: 10 µM unless noted
The panel holds about 83,000 compounds, 20% with a hit somewhere; the sample as a whole holds those more often. Activity calls are given as the source filed them. Rule for the calls: active = growth percent below 10; inactive = the rest.

[
  {
    "COMPOUND": "O=C(Nc1ccc(F)cc1)ON=C1CCCCC1",
    "MEASURED_TARGET": "NCI-H322M lung",
    "growth": "101% [100 µM] (inactive)"
  },
  {
    "COMPOUND": "NC1=CC(=O)c2ccccc2C1=O",
    "MEASURED_TARGET": "NCI-H322M lung",
    "growth": "97% (inactive)"
  },
  {
    "COMPOUND": "CCC(=O)Sc1ccccc1C(=O)Nc1ccc(Cl)cc1",
    "MEASURED_TARGET": "NCI-H322M lung",
    "growth": "55.4% (inactive)"
  },
  {
    "COMPOUND": "N#CC1C(=O)SC2c3ccccc3C(=O)c3ccccc3C12 (stereo not given)",
    "MEASURED_TARGET": "NCI-H322M lung",
    "growth": "98.8% (inactive)"
  },
  {
    "COMPOUND": "COc1cc(/C=C(/C)C[N+](=O)[O-])ccc1O",
    "MEASURED_TARGET": "NCI-H322M lung",
    "growth": "92.5% (inactive)"
  },
  {
    "COMPOUND": "O=Nc1ccccc1N=O",
    "MEASURED_TARGET": "NCI-H322M lung",
    "growth": "84.2% (inactive)"
  },
  {
    "COMPOUND": "Cc1ccnc2c1ccc1c(C)ccnc12",
    "MEASURED_TARGET": "NCI-H322M lung",
    "growth": "19% (inactive)"
  },
  {
    "COMPOUND": "O=C1C=CC(=O)N1C1c2ccccc2-c2ccccc21",
    "MEASURED_TARGET": "NCI-H322M lung",
    "growth": "94.6% (inactive)"
  },
  {
    "COMPOUND": "O=C(CC1(O)C(=O)Nc2c(Cl)ccc(Cl)c21)c1ccc(Cl)cc1Cl (stereo not given)",
    "MEASURED_TARGET": "NCI-H322M lung",
    "growth": "108% (inactive)"
  },
  {
    "COMPOUND": "CC(=O)ON=C1C=CC(=C(C#N)c2ccccc2)C=C1",
    "MEASURED_TARGET": "NCI-H322M lung",
    "growth": "94.8% (inactive)"
  }
]
